# Read-out: Cyclin D2 (CCND2), CCND2 (gene 894)
# assayNotes: LTEA_HepaRG_CCND2: Life Technologies and Expression Analysis (LTEA) Assay for Cyclin D2 (CCND2) using HepaRG (AID 2283449);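 note: CCND2 transcript measured by TaqMan qRT-PCR and normalised to three housekeeping genes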
# recordedConditions: mRNA level, 48 h; actives raise or lower the signal
Active and inactive are the calls of the source. Rule for the calls: active = hit-call score of the fitted dose curve at least 0.9, where 1 is the maximum; inactive = score below 0.9.
Outcome codes: active, inactive

molecule=Clc1cccc(C(Cl)(Cl)Cl)n1 group=inactive
molecule="CC1(C)C(C(=O)OC(C#N)c2cccc(Oc3ccccc3)c2)C1(C)C (configuration not stated)" group=inactive
molecule="CC(C)(C)C(=O)C(Oc1ccc(Cl)cc1)n1cncn1 (configuration not stated)" group=inactive
molecule=CC(C)N1C(=O)c2ccccc2NS1(=O)=O group=inactive
molecule=CCOP(=S)(OCC)Oc1nc(Cl)n(C(C)C)n1 group=inactive
molecule="CCOc1cc(C(C)(C)C)ccc1C1COC(c2c(F)cccc2F)=N1 (configuration not stated)" group=inactive
molecule=Nc1cnn(-c2ccccc2)c(=O)c1Cl group=inactive
molecule=CCNC(=O)NC(=O)C(C#N)=NOC group=inactive
molecule=COP(=O)(OC)O/C(C)=C/C(=O)N(C)C group=inactive
molecule=CC(C)Oc1cccc(NC(=O)c2ccccc2C(F)(F)F)c1 group=active
molecule=CCOP(=O)(OCC)Oc1nc(Cl)c(Cl)cc1Cl group=inactive
molecule=CO/N=C(/C1=NOCCO1)c1ccccc1Oc1ncnc(Oc2ccccc2Cl)c1F group=inactive

---

# assayNotes: APR_HepG2_p53Act_24hr: Apredica 24-hour HepG2 Assay for p53 Activation (AID 2282913);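 note: p53 protein immunofluorescence averaged per cell in HepG2 with Hoechst nuclei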
# recordedConditions: high-content imaging, actives raise or lower the signal
The source made the active and inactive calls. Rule for the calls: active = hit-call score of the fitted dose curve at least 0.9, where 1 is the maximum; inactive = score below 0.9.
Outcome codes: 1.0 for active, 0.0 for inactive

molecule=COC(=O)c1c(C(F)F)nc(C(F)(F)F)c(C2=NCCS2)c1CC(C)C group=0.0
molecule="CC(C)(C)C(=O)C(Oc1ccc(Cl)cc1)n1cncn1 (configuration not stated)" group=0.0
molecule="CCCC(=NOCC)C1=C(O)CC(CC(C)SCC)CC1=O (configuration not stated)" group=0.0
molecule="CC(C)C1(C)N=C(c2ncccc2C(=O)O)NC1=O (configuration not stated)" group=0.0
molecule=CC(C)Oc1cccc(NC(=O)c2ccccc2C(F)(F)F)c1 group=0.0
molecule=Clc1nc(Cl)nc(Nc2ccccc2Cl)n1 group=0.0
molecule=CCOc1nc(C(Cl)(Cl)Cl)ns1 group=0.0
molecule=CCSC(=O)N1CCCCCC1 group=0.0
molecule=CCOc1nc(F)cc2nc(S(=O)(=O)Nc3c(Cl)cccc3Cl)nn12 group=0.0
molecule=Cn1c(-c2ccccc2)cc(-c2ccccc2)[n+]1C group=0.0
molecule="COCC(C)N(C(=O)CCl)c1c(C)csc1C (configuration not stated)" group=1.0
molecule="CC1(C)C(C(=O)OC(C#N)c2cccc(Oc3ccccc3)c2)C1(C)C (configuration not stated)" group=0.0

---

# assayNotes: CCTE_Mundy_HCI_Cortical_NOG_NeuronCount: CCTE's Neurite Outgrowth Assay in rat cortical cells for Neuron Count, Mundy Lab (AID 2284236);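 note: neurons counted by imaging betaIII-tubulin and Hoechst stained cortical cells; cells exposed to compound for about 48 hours before fixation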
Inconclusive results are not listed. Activity calls are given as the source filed them. Rule for the calls: active = hit-call score of the fitted dose curve at least 0.9, where 1 is the maximum; inconclusive = response in the unintended direction; inactive = score below 0.9.
Outcome codes: active, inactive

chemicalsmiles=Cc1c(COC(=O)[C@@H]2[C@H](/C=C(\Cl)C(F)(F)F)C2(C)C)cccc1-c1ccccc1 group=active
chemicalsmiles=C=C(C)CN(CC)c1c([N+](=O)[O-])cc(C(F)(F)F)cc1[N+](=O)[O-] group=active
chemicalsmiles=CCNC(=O)NC(=O)C(C#N)=NOC group=inactive
chemicalsmiles=CCOP(=O)(OCC)Oc1nc(Cl)c(Cl)cc1Cl group=inactive
chemicalsmiles=CN/C(=N\[N+](=O)[O-])NCc1cnc(Cl)s1 group=inactive
chemicalsmiles=O=C(Nc1ccccc1-c1ccc(Cl)cc1)c1cccnc1Cl group=inactive

Attribution: PubChem BioAssay (EPA / NIEHS)
